Target or system JAK2 (Homo sapiens, UniProt O60674): recorded pIC50 listed per item.
pIC50: −log10 of the molar value.

[[record]]
molecule = "Cn1cc(-c2cc3nccn3c(-c3cnn(C(CCO)C4CCCCC4)c3)n2)cn1 (stereo not shown)"
attribute_measured = "pIC50"
recorded_result = "6.00 to 7.00"

[[record]]
molecule = "Cn1cc(-c2cc3nccn3c(-c3cnn(C(CC=C(F)F)C4CC4)c3)n2)cn1 (stereo not shown)"
attribute_measured = "pIC50"
recorded_result = "7.00 to 8.00"

[[record]]
molecule = "Cn1cc(-c2cc3nccn3c(-c3cnn(C(CCO)C4CCC4)c3)n2)cn1 (stereo not shown)"
attribute_measured = "pIC50"
recorded_result = "< 6.00"

[[record]]
molecule = "C/C=C/[C@H](C1CC1)n1cc(-c2nc(-c3cnn(C)c3)cc3nccn23)cn1"
attribute_measured = "pIC50"
recorded_result = "6.00 to 7.00"

[[record]]
molecule = "COCCC1(n2cc(-c3nc(-c4cnn(C)c4)cc4nccn34)cn2)CCC1"
attribute_measured = "pIC50"
recorded_result = "6.00 to 7.00"

[[record]]
molecule = "C#CCCn1cc(-c2nc(-c3cnn(C)c3)cc3nccn23)cn1"
attribute_measured = "pIC50"
recorded_result = "7.00 to 8.00"

[[record]]
molecule = "Cn1cc(-c2cc3nccn3c(-c3ccn(C4(CCF)CN(CC#N)C4)c3)n2)cn1"
attribute_measured = "pIC50"
recorded_result = "6.00 to 7.00"

[[record]]
molecule = "CCOC(=O)CC1(n2cc(-c3nc(-c4cnn(C)c4)cc4nccn34)cn2)CN(S(=O)(=O)C(F)(F)F)C1"
attribute_measured = "pIC50"
recorded_result = "< 6.00"

[[record]]
molecule = "Cn1cc(-c2cc3nccn3c(-c3cnn(C4(CCF)CN(S(=O)(=O)CC5CC5)C4)c3)n2)cn1"
attribute_measured = "pIC50"
recorded_result = "6.00 to 7.00"

[[record]]
molecule = "COCCn1cc(-c2cc3nccn3c(-c3cnn(C4(CCF)CN(S(=O)(=O)C(F)(F)F)C4)c3)n2)cn1"
attribute_measured = "pIC50"
recorded_result = "7.00 to 8.00"


Tell me the measured pIC50 of COCCC(C1CC1)n1cc(-c2nc(-c3cnn(C)c3)cc3nccn23)cn1 (stereo not shown) , please.
6.00 to 7.00

Tell me the measured pIC50 of Cn1cc(-c2cc3nccn3c(-c3cnn(C4(CC(=O)O)CN(S(=O)(=O)C(F)(F)F)C4)c3)n2)cn1 , please.
< 6.00

Tell me the measured pIC50 of Cn1cc(-c2cc3nccn3c(-c3cnn(C(CCO)C4CC4(F)F)c3)n2)cn1 (stereo not shown) , please.
< 6.00

Tell me the measured pIC50 of Cn1cc(-c2cc3nccn3c(-c3ccn([C@H](CCF)[C@@H]4CC4(F)F)c3)n2)cn1 , please.
7.00 to 8.00

Tell me the measured pIC50 of Cn1cc(-c2cc3nccn3c(-c3cnn(C4(C)CN(S(=O)(=O)C(F)(F)F)C4)c3)n2)cn1 , please.
6.00 to 7.00

Tell me the measured pIC50 of O=S(=O)(N1CC(CCF)(n2cc(-c3nc(-c4cn[nH]c4)cc4nccn34)cn2)C1)C(F)(F)F , please.
7.00 to 8.00

Values were extracted from patent US20140228349A1.
